Give inhibition for every item shown.
system-tested: Ephrin type-A receptor 4 (Homo sapiens) (UniProt P54764);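 also: mean inhibition of EPHA4 from the GSK PKIS screening set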
Sequence (P54764 whole entry): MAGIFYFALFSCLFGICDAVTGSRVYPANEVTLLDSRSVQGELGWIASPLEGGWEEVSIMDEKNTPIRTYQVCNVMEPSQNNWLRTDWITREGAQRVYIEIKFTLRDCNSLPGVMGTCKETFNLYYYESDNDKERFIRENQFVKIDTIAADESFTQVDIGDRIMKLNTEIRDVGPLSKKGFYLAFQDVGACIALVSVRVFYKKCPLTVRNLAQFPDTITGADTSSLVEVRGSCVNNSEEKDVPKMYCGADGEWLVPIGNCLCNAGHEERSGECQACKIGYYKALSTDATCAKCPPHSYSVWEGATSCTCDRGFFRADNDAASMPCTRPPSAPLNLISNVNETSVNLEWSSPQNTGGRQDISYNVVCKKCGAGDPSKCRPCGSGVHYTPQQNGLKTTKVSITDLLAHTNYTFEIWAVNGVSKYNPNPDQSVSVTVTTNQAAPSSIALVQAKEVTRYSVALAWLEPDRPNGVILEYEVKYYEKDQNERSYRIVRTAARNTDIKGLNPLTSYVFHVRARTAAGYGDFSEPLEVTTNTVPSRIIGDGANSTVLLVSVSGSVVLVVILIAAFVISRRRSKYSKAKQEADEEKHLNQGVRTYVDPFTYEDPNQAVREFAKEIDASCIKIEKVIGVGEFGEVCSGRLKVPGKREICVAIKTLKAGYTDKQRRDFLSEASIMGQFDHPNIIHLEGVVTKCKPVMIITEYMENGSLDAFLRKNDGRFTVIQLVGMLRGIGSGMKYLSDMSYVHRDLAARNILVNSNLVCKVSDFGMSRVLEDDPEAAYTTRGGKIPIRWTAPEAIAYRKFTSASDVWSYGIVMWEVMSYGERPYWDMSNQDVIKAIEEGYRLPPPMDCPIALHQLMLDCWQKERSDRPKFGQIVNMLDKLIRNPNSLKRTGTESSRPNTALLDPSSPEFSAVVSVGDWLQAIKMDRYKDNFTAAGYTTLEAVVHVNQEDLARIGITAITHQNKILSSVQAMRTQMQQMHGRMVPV
condition-description: at 0.1 µM
Answers are plain numbers, in %.

Okay, here is my list. What is inhibition for each of these?
1. CCCN1CCCC(c2ccc(Nc3nc(Nc4cc(F)ccc4C(N)=O)c4cc[nH]c4n3)c(OC)c2)C1 (stereo unspecified)
2. Cc1ccc(Nc2ccnc(Nc3cccc(C(N)=O)c3)n2)cc1O
3. CCn1c(-c2nonc2N)nc2ccc(F)cc21
4. Cc1cc(-c2ccccn2)cc(C)c1/C=C/c1cncc(-c2nn[nH]n2)c1
5. O=S(=O)(CCOCc1ccc(-c2ccc3ncnc(Nc4ccc(OCc5cccc(F)c5)c(Cl)c4)c3c2)o1)c1ccccc1
6. CCS(=O)(=O)c1ccc(OC)c(Nc2ncc(-c3cccc(OC)c3)o2)c1

Output:
1. 8.97
2. 17.1
3. 11.3
4. 6.16
5. 2.2
6. 6.27

Okay, here is my list. What is inhibition for each of these?
1. NC(=O)c1cccc(Nc2nccc(Nc3cccc(F)c3)n2)c1
2. COC(=O)c1cncc(/C=C/c2c(C)cc(O)cc2C)c1
3. CCOc1nccc2c1nc(-c1nonc1N)n2CC
4. NS(=O)(=O)c1ccc(-c2cc3ccncc3cc2OCc2ccccc2)cc1
5. Cc1ccc(NC(=O)CC2CC2)cc1-c1ccc(C(=O)NCC2CC2)cc1
6. NC(=O)c1sc(-n2cnc3ccccc32)cc1OCc1ccccc1Br
7. COc1cc2ncnc(Nc3ccc4c(cnn4Cc4ccccc4)c3)c2cc1OC
8. NS(=O)(=O)c1cccc(Nc2cc(-c3ccc(F)cc3)n[nH]2)c1

Output:
5.65
19
11.7
9.03
8.26
6.29
4.83
8.18

* * *

system-tested: Mitogen-activated protein kinase 12 (Homo sapiens);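 also: values are averaged p38gamma kinase inhibition readings, compounds tested at 1 µM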
condition-description: at 1 µM
Give inhibition for every item shown.
Numbers only, in %.

Examples with their reported inhibition follow.
NS(=O)(=O)c1ccc(Nc2cc(-c3cccc(O)c3)n[nH]2)cc1 3.15
COc1cc2ncnc(Nc3ccc(C)c(O)c3)c2cc1OC 4.08
CCS(=O)(=O)c1ccc(OC)c(Nc2nccc(N(C)c3ccc4c(C)n[nH]c4c3)n2)c1 3.12
[O-][S+]1CCN(Cc2ccc(-c3ccc4ncnc(Nc5ccc(OCc6ccccc6)c(Cl)c5)c4c3)o2)CC1 1.59
N#Cc1c(NC(=O)c2ccccc2F)sc2c1CCCC2 -0.74
Nc1nccc(C#Cc2cncnc2Nc2ccc(OCc3cccc(F)c3)c(Cl)c2)n1 3.22
Cc1nc(-c2ccccc2)n2nc(NCCCN3CCOCC3)ncc12 2.42
Cc1ccc(O)cc1Nc1ccnc2ccc(S(C)(=O)=O)cc12 3.79

Okay, here is my list. What is inhibition for each of these?
1. CCS(=O)(=O)c1ccc(OC)c(Nc2ncc(-c3cccc(OC)c3)o2)c1
2. Cc1ccc2c(c1)/C(=N/Nc1ccc(S(N)(=O)=O)cc1)C(=O)N2

Output:
1: 2.08; 2: -0.05

* * *

system-tested: MAP kinase-activated protein kinase 3 (Homo sapiens)
condition-description: at 0.1 µM
Description: GSK_PKIS: MAPKAPK3 mean inhibition at 0.1 uM [Nanosyn]
Give inhibition for every item shown.

Examples with their reported inhibition follow.
CN1CCN(C(=O)c2ccc(NC(=O)Nc3ccc(N(C)c4ccnc(Nc5ccc(CS(C)(=O)=O)cc5)n4)cc3)cc2)CC1 2.24%
COc1cc(/C=N/Nc2ncnc3c2cnn3C(C)C)ccc1O 0.97%
COc1ccc(-c2nn3ncccc3c2-c2ccnc(Nc3cccc(C(F)(F)F)c3)n2)cc1 7.94%
Cc1nc(-c2ccccc2)n2nc(NCCCN3CCOCC3)ncc12 1.51%

Attention now shifts to the item below.
Input: Specify inhibition for COc1cccc(-n2ncc3c(N/N=C/c4ccc(S(C)(=O)=O)cc4)ncnc32)c1 and stop.
Output: -0.21%

* * *

system-tested: Dual specificity protein kinase CLK3 (Homo sapiens) (UniProt P49761);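 also: each value is the mean inhibition of CLK3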
Sequence (P49761 whole entry, looked up): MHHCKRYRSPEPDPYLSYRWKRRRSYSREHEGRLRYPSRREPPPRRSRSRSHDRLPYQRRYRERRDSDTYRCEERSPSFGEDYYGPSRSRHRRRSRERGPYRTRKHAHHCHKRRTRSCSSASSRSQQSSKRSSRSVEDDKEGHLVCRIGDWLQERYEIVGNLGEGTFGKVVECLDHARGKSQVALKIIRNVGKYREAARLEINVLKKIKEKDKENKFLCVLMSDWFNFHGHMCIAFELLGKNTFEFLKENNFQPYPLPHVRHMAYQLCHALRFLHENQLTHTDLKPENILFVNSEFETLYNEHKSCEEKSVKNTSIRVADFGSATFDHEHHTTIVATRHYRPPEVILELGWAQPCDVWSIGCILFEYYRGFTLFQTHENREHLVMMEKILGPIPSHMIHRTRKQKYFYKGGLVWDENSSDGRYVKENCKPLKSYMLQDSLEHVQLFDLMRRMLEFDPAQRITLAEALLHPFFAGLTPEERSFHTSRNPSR
condition-description: at 1 µM
quantity-measured: inhibition (%)
Answers are plain numbers, in %.

Okay, here is my list. What is inhibition for each of these?
1. COc1cc(/C=N/Nc2ncnc3c2cnn3C(C)C)ccc1O
2. ON=C1CCc2cc(-c3nc(C4CCNCC4)[nH]c3-c3ccncc3)ccc21
3. Cc1ccc(Nc2ccnc(Nc3cccc(C(N)=O)c3)n2)cc1O
4. C[C@@H](Oc1cc(-n2cnc3ccc(OC[C@@H](O)CO)cc32)sc1C(N)=O)c1ccccc1Cl
5. CCn1c(-c2nonc2N)nc2ccc(F)cc21

Output:
1. 31.6
2. 0.22
3. 3.09
4. 1.12
5. 1.23

* * *

Give inhibition for every item shown.
system-tested: Phosphorylase b kinase gamma catalytic chain, liver/testis isoform (Homo sapiens) (UniProt P15735);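 also: values are mean inhibition of PHKG2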
Sequence (whole entry): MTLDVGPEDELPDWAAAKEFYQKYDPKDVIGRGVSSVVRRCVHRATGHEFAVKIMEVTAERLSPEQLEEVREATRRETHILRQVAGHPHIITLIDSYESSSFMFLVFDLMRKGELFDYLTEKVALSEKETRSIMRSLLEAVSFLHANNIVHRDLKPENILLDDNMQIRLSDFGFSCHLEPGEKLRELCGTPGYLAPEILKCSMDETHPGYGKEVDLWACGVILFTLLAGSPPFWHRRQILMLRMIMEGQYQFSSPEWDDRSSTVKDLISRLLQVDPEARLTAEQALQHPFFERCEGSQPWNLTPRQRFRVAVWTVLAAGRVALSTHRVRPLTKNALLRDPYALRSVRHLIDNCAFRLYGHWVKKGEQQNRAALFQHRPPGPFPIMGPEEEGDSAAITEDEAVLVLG
condition-description: at 0.1 µM
Form field: result (number plus unit)

Examples with their reported inhibition follow.
CCOc1nccc2c1nc(-c1nonc1N)n2CC 4.34%
COc1cc2ncnc(Nc3ccc(C)c(O)c3)c2cc1OC 5.48%

Okay, here is my list. What is inhibition for each of these?
1. Cc1ccc2c(-c3ccnc(Nc4ccc5c(c4)OCCO5)n3)c(-c3ccc(C(F)(F)F)cc3)nn2n1
2. FC(F)(F)c1ccc(-c2nn3ncccc3c2-c2ccnc(Nc3ccc4c(c3)OCCO4)n2)cc1
3. c1ccc(Nc2ncc(-c3ccccc3)o2)cc1
4. CN(C)CCCn1c(-c2nonc2N)nc2cnccc21

Output:
1.58%
0.59%
6.62%
4.54%

Okay, here is my list. What is inhibition for each of these?
1. COC(=O)c1cncc(/C=C/c2c(C)cc(O)cc2C)c1
2. OCc1ccc(-c2nc(-c3ccccn3)c(-c3ccc4c(c3)OCO4)[nH]2)cc1
3. NS(=O)(=O)c1cccc(-c2cc3ccncc3cc2OCc2ccccc2)c1
4. COc1cc(Nc2nccc(-c3cnn4ncccc34)n2)cc(OC)c1
5. Nc1nccc(C#Cc2cncnc2Nc2ccc(OCc3cccc(F)c3)c(Cl)c2)n1

Output:
1. 4.23%
2. 5.91%
3. 4.91%
4. 2.69%
5. 4.05%

* * *

Tested on: Mast/stem cell growth factor receptor Kit (Homo sapiens), P10721 [T670I]
Sequence (P10721 whole entry T670I): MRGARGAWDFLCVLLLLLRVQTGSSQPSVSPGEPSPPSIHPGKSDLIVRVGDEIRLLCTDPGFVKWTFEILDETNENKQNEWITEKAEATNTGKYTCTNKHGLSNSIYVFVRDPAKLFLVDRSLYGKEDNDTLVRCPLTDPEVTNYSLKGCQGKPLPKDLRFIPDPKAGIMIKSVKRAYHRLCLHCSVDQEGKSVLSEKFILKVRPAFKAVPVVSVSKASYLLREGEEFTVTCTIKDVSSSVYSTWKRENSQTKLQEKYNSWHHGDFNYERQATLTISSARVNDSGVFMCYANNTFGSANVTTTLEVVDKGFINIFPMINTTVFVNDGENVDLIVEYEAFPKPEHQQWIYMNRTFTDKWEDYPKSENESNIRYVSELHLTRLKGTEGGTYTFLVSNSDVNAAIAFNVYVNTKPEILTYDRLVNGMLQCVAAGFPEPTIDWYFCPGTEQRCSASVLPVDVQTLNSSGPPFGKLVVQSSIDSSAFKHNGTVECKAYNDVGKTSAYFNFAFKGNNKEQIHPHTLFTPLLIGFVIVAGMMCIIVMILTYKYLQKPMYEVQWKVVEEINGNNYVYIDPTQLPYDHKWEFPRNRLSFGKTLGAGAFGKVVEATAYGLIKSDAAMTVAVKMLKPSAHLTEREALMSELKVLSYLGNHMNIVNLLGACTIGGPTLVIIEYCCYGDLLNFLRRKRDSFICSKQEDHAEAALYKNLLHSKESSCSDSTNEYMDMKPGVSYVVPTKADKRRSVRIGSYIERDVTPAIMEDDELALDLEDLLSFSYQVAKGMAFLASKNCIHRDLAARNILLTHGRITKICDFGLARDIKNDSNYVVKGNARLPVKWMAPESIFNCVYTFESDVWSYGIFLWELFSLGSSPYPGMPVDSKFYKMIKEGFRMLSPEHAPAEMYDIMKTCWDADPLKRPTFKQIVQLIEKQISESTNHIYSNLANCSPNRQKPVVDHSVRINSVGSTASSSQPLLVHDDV
condition-description: at 0.1 µM
quantity-measured: inhibition (%)
Answers are plain numbers, in %.

Examples with their reported inhibition follow.
CC(C)c1ccc2c(c1)NC(=O)/C2=N/Nc1ccc(S(N)(=O)=O)cc1 0.1
Oc1cccc(-c2nc(-c3ccccc3)[nH]c2-c2ccncc2)c1 2.52
Cc1cc(O)cc(C)c1/C=C/c1cncc(C(=O)N(C)C)c1 2.61
C[C@@H](Oc1cc(-n2cnc3ccc(OC[C@@H](O)CO)cc32)sc1C(N)=O)c1ccccc1Cl -1.2

Attention now shifts to the item below.
Input: Specify inhibition for CCS(=O)(=O)c1ccc(OC)c(Nc2nccc(N(C)c3ccc4c(C)n[nH]c4c3)n2)c1 and stop.
Output: 5.56

* * *

Give inhibition for every item shown.
system-tested: Proto-oncogene tyrosine-protein kinase receptor Ret (Homo sapiens) (UniProt P07949);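 also: reported figure is the mean of RET inhibition measurements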
Sequence (P07949 whole entry): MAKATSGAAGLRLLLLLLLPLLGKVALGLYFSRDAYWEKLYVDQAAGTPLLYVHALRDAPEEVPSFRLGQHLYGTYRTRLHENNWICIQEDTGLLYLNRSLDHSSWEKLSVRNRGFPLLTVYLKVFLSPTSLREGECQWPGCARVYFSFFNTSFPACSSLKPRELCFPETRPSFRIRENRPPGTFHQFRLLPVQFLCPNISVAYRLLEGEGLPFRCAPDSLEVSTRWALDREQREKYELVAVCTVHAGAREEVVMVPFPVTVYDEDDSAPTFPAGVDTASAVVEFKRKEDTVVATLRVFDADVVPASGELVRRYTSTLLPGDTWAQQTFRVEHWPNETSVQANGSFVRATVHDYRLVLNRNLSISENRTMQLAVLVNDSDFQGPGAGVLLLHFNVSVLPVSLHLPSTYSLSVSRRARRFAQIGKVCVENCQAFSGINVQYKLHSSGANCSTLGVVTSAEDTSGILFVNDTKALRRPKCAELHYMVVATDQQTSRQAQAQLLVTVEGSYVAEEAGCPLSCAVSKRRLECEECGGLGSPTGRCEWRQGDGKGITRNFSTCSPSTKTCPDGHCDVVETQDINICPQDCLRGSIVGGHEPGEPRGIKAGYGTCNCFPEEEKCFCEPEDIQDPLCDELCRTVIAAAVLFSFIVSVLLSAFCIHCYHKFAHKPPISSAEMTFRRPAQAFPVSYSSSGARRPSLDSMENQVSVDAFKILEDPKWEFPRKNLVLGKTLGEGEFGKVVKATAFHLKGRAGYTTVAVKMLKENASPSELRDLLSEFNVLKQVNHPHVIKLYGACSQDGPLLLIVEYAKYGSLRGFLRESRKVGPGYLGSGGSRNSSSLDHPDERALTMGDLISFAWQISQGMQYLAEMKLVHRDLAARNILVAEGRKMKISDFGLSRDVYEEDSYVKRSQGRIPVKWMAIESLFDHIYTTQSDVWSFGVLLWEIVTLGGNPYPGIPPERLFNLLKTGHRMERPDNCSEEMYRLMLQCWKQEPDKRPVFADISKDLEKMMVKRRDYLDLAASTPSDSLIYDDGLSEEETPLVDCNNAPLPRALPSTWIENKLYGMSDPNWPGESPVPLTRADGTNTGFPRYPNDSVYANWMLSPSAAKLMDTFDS
condition-description: at 0.1 µM
One number for each entry, in %.

Examples with their reported inhibition follow.
c1ccc(Cc2nc3ccc(Nc4ncnc5ccccc45)cc3[nH]2)cc1 4.63
NC(=O)c1sc(-n2cnc3ccccc32)cc1OCc1ccccc1Br 9.37
O=C(Nc1ccc(Oc2ccc3[nH]c(NC(=O)c4ccco4)nc3c2)cc1)Nc1cc(C(F)(F)F)ccc1F 77.7
Cc1cc(-c2ccccn2)cc(C)c1/C=C/c1cncc(-c2nn[nH]n2)c1 5.88
Nc1ccc(C#Cc2cncnc2Nc2ccc(OCc3cccc(F)c3)c(Cl)c2)cc1 6.12
COC(=O)c1cncc(/C=C/c2c(C)cc(O)cc2C)c1 2.45
COc1cccc(-n2nc(C)c3c(N/N=C(\C)c4ccncc4)ncnc32)c1 -0.76
C[C@@H](Oc1cc(-n2cnc3ccc(OC[C@@H](O)CO)cc32)sc1C(N)=O)c1ccccc1Cl 0.87

Okay, here is my list. What is inhibition for each of these?
1. CCOc1nccc2c1nc(-c1nonc1N)n2CC
2. OCc1ccc(-c2nc(-c3ccccn3)c(-c3ccc4c(c3)OCO4)[nH]2)cc1

Output:
1. 5.47
2. 4.72

* * *

system-tested: Testis-specific serine/threonine-protein kinase 2 (Homo sapiens);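 also: values are mean inhibition of TSSK2 activity from the GSK PKIS profiling panel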
Sequence (whole entry): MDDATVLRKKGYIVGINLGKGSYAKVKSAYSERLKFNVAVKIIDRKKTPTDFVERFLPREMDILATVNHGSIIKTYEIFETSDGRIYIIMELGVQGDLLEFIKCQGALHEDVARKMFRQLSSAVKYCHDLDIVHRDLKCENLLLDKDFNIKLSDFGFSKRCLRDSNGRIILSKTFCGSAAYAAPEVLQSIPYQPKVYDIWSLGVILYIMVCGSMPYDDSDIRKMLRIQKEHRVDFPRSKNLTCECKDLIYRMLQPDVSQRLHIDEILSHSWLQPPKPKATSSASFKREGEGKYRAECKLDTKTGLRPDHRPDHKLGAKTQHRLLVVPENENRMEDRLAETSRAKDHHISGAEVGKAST
condition-description: at 0.1 µM
Give inhibition for every item shown.
Numbers only, in %.

COC(=O)c1cncc(/C=C/c2c(C)cc(O)cc2C)c1 0.9
Cc1cc(Cl)cc2c1NC(=O)C2=NNc1ccc(S(N)(=O)=O)cc1 2.71
c1ccc(Nc2ncc(-c3ccccc3)o2)cc1 2.44
COc1cc2ncnc(Nc3ccc(C)c(O)c3)c2cc1OC 1.77
COc1ccc(-c2nn3ncccc3c2-c2ccnc(Nc3cccc(C(F)(F)F)c3)n2)cc1 1.17
OCc1ccc(-c2nc(-c3ccccn3)c(-c3ccc4c(c3)OCO4)[nH]2)cc1 0.7
Cc1cc(-c2ccccn2)cc(C)c1/C=C/c1cncc(-c2nn[nH]n2)c1 1.85
CCn1c(-c2nonc2N)nc2c(C#CC(C)(C)O)nc(OCCNC)cc21 1.75

Okay, here is my list. What is inhibition for each of these?
1. CN(C)C(=O)O[C@@H]1CN[C@@H](C#Cc2cc3ncnc(Nc4ccc(OCc5cccc(F)c5)c(Cl)c4)c3s2)C1
2. [O-][S+]1CCN(Cc2ccc(-c3ccc4ncnc(Nc5ccc(OCc6ccccc6)c(Cl)c5)c4c3)o2)CC1

Output:
1: -0.92; 2: 1.24
